molecular target: T1, human IL-13 R130Q variant (R110Q of the mature chain) (human, UniProt P35225 35-146, Biotinylated on amines (NHS-LC-biotin, 4:1) in ELISA, panning and competition assays. The letters are unchanged.); assay: single-point (10 nM) phage Fab ELISA on biotinylated IL-13 R130Q
T1 construct: R130Q counts from Met 1 of the signal peptide, R110Q on the mature chain; Bought from Peprotech; also called IL-13 R110Q; b-R130Q
T1 sequence (P35225 35-146 limits assumed, stated change not applied): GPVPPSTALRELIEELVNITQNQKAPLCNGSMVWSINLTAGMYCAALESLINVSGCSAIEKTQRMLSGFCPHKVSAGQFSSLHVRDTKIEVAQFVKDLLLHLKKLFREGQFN
metric: % of Lc16Hc7 (%)
Answers are plain numbers, in %.

Please state % of Lc16Hc7 for every binder in the list that follows.
1. Phage # 72 Fab (IL-13-142 library) (Fab, V domains shown, Fab on phage pIX) VH: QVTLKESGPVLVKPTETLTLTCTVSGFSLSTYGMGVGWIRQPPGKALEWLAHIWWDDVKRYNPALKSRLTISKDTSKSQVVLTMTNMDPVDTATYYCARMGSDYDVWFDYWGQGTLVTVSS VL: DIQMTQSPSTLSASVGDRVTITCRASKSISKYLAWYQQKPGKAPKLLIYSGSTLQSGVPSRFSGSGSGTEFTLTISSLQPDDFATYYCQQHNEGPYTFGGGTKVEIK
2. Phage # 06 Fab (IL-13-142 library) (Fab, V domains shown, Fab on phage pIX) VH: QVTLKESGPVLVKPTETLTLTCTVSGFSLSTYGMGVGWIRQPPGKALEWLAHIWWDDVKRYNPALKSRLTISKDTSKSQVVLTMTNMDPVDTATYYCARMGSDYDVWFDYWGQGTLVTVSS VL: DIQMTQSPSTLSASVGDRVTITCRASKSISKYLAWYQQKPGKAPKLLIYSGSTLQSGVPSRFSGSGSGTEFTLTISSLQPDDFATYYCQQPLTHPYTFGGGTKVEIK

Outgoing:
114
232

Measured values drawn from patent US20120045438A1 for this set.
